Experiment: Plasma pharmacokinetics after a single oral dose of AZT
Format: in vivo, human
Conditions: male, human, po, 600 mg
recorded metric: half-life (h)
Please respond with the number in h and leave the unit unwritten.

# input Data request, read-out half-life, for Cc1cn([C@H]2C[C@H](N=[N+]=[N-])[C@@H](CO)O2)c(=O)[nH]c1=O
# output 2.02

----------
Assay: Plasma pharmacokinetics after a single oral dose of AZT
Format: in vivo, human
Conditions: male, human, po, 600 mg
recorded metric: AUC0-t (ng·h/mL)
Please respond with the number in ng·h/mL and leave the unit unwritten.

# input Data request, read-out AUC0-t, for Cc1cn([C@H]2C[C@H](N=[N+]=[N-])[C@@H](CO)O2)c(=O)[nH]c1=O [AZT, 3'-azido-3'-deoxythymidine]
# output 7050

----------
Type: in vivo, human
Settings: male, human, peripheral blood mononuclear cells (hPBMCs), po, 600 mg
recorded metric: half-life (h)
Please respond with the number in h and leave the unit unwritten.

# input Data request, read-out half-life, for Cc1cn([C@H]2C[C@H](N=[N+]=[N-])[C@@H](CO)O2)c(=O)[nH]c1=O [AZT, 3'-azido-3'-deoxythymidine]
# output 2.49

# input Data request, read-out half-life, for Cc1cn([C@H]2C[C@H](N=[N+]=[N-])[C@@H](CO[P@](=O)(O)O[P@](=O)(O)OP(=O)(O)O)O2)c(=O)[nH]c1=O [AZT-TP, 5′-AZT triphosphate]
# output 4.24

----------
Assay: Plasma pharmacokinetics after a single oral dose of AZT
Format: in vivo, human
Details: male, human, po, 600 mg
recorded metric: Vd/F (L)
Please respond with the number in L and leave the unit unwritten.

# input Data request, read-out Vd/F, for Cc1cn([C@H]2C[C@H](N=[N+]=[N-])[C@@H](CO)O2)c(=O)[nH]c1=O [AZT, 3'-azido-3'-deoxythymidine]
# output 264
